Quick reference: log10 of IC50 of the listed items.
# System: IL-1β release, THP-1 cells
# TEST_DESCRIPTION: IL-1β release assay in differentiated THP-1 cells stimulated with BzATP (Example 9)
# Format: cell-based
# CONDITION_LABEL: Homo sapiens; THP-1 cells, BzATP 250 uM, four parameter logistic fit
On a log10 scale: recorded IC50, unit µM.

[[record]]
compound = "CC(c1ccc(F)cc1)N1CCc2c(cccc2NC(=O)Cc2ccc(C(F)(F)F)c(F)c2)C1 (stereo not shown)"
endpoint_name = "log10 of IC50"
meas_value = -0.59

[[record]]
compound = "Cc1ccc2c(c1NC(=O)Cc1ccc(C(F)(F)F)c(F)c1)CCN(C(=O)C1(O)CC1)C2"
endpoint_name = "log10 of IC50"
meas_value = -1.16

[[record]]
compound = "CCC(=O)N1CCc2c(ccc(C)c2NC(=O)Cc2ccc(C(F)(F)F)c(F)c2)C1"
endpoint_name = "log10 of IC50"
meas_value = -1.07

[[record]]
compound = "N[C@@H](Cc1ccccc1)C(=O)N1CCc2c(cccc2NC(=O)Cc2ccc(C(F)(F)F)c(F)c2)C1"
endpoint_name = "log10 of IC50"
meas_value = -1.25

[[record]]
compound = "Cc1ccc2c(c1NC(=O)Cc1ccc(C(F)(F)F)c(F)c1)CCN(S(=O)(=O)CC(F)(F)F)C2"
endpoint_name = "log10 of IC50"
meas_value = -0.97

[[record]]
compound = "Cc1ccc2c(c1NC(=O)Cc1ccc(C(F)(F)F)c(F)c1)CCN(C(=O)[C@H]1CCN1)C2"
endpoint_name = "log10 of IC50"
meas_value = -1.13

[[record]]
compound = "COc1ccc2c(c1NC(=O)Cc1ccc(C(F)(F)F)c(F)c1)CCN(C(=O)CC1(O)CCCC(C)(C)C1)C2 (stereo not shown)"
endpoint_name = "log10 of IC50"
meas_value = -0.72

[[record]]
compound = "Cc1ccc2c(c1NC(=O)Cc1ccc(C(F)(F)F)c(F)c1)CCN(S(=O)(=O)c1c(F)cccc1F)C2"
endpoint_name = "log10 of IC50"
meas_value = -1.11


Now look at this entry.
Sure, the documented log10 of IC50 for "C[C@H](N)C(=O)N1CCc2c(cccc2NC(=O)Cc2ccc(C(F)(F)F)c(F)c2)C1" is -0.16

###

# Tested on: IL-1β release, THP-1 cells
# TEST_DESCRIPTION: IL-1β release assay in differentiated THP-1 cells stimulated with BzATP (Example 9)
# Type: cell-based
# CONDITION_LABEL: Homo sapiens; THP-1 cells, BzATP 250 uM, four parameter logistic fit
ENDPOINT_NAME: IC50 (nM)
Provide the reading as a plain figure in nM.

[[record]]
compound = "CN(C)CCC(=O)N1CCc2c(cccc2NC(=O)Cc2ccc(C(F)(F)F)c(F)c2)C1"
meas_value = 967


Here "O=C(Cc1ccc(C(F)(F)F)c(F)c1)Nc1cccc2c1CCN(C(=O)[C@@H]1CCCN1)C2" was tested on IL-1β release, THP-1 cells, and its IC50 came to 182

Here "Cc1ccc2c(c1NC(=O)Cc1ccc(C(F)(F)F)c(F)c1)CCN(C(=O)C1(C)CC1)C2" was tested on IL-1β release, THP-1 cells, and its IC50 came to 261

Here "O=C(Cc1ccc(C(F)(F)F)cc1)Nc1c(Cl)ccc2c1CCN(S(=O)(=O)c1ccccc1Cl)C2" was tested on IL-1β release, THP-1 cells, and its IC50 came to 49.3

###

# System: IL-1β release, THP-1 cells
# TEST_DESCRIPTION: IL-1β release assay in differentiated THP-1 cells stimulated with BzATP (Example 9)
# Type: cell-based
# CONDITION_LABEL: Homo sapiens; THP-1 cells, BzATP 250 uM, four parameter logistic fit
pIC50: −log10 of the molar value.
Give fulfilled when the value for pIC50 is at least 7. Give not fulfilled when it is less.

[[record]]
compound = "Cc1ccc2c(c1NC(=O)Cc1ccc(C(F)(F)F)c(F)c1)CCN(C(=O)[C@H]1CCCN1)C2"
target_or_system = "IL-1β release, THP-1 cells"
assigned_label = "fulfilled"


Lookup: Identify whether the reported pIC50 of the following compound is 7 or greater: "COc1ccc2c(c1NC(=O)Cc1ccc(C(F)(F)F)c(F)c1)CCN(C(=O)C(C)(C)CO)C2"
Found: not fulfilled

Lookup: Identify whether the reported pIC50 of the following compound is 7 or greater: "Cc1ccc2c(c1NC(=O)Cc1ccc(C(F)(F)F)c(F)c1)CCN(C(=O)C1CCCC1)C2"
Found: fulfilled

Lookup: Identify whether the reported pIC50 of the following compound is 7 or greater: "Cc1ccc2c(c1NC(=O)Cc1ccc(C(F)(F)F)c(F)c1)CCN(C(=O)C(C)(C)CO)C2"
Found: not fulfilled

Lookup: Identify whether the reported pIC50 of the following compound is 7 or greater: "Cc1ccc2c(c1NC(=O)Cc1ccc(C(F)(F)F)c(F)c1)CCN(C(=O)C1CC1)C2"
Found: fulfilled

Lookup: Identify whether the reported pIC50 of the following compound is 7 or greater: "COc1ccc2c(c1NC(=O)Cc1ccc(C(F)(F)F)c(F)c1)CCN(C(=O)C(C)(C)C)C2"
Found: not fulfilled

Lookup: Identify whether the reported pIC50 of the following compound is 7 or greater: "CC(C)(C)C(=O)N1CCc2c(ccc(C3CC3)c2NC(=O)Cc2ccc(C(F)(F)F)c(F)c2)C1"
Found: not fulfilled

Lookup: Identify whether the reported pIC50 of the following compound is 7 or greater: O=C(Cc1ccc(C(F)(F)F)c(F)c1)Nc1cccc2c1CCN(CC(O)CCl)C2 (stereo not drawn)
Found: not fulfilled

Lookup: Identify whether the reported pIC50 of the following compound is 7 or greater: "Cc1ccc2c(c1NC(=O)Cc1ccc(C(F)(F)F)c(F)c1)CCN(C(=O)C1CCC1)C2"
Found: fulfilled

Lookup: Identify whether the reported pIC50 of the following compound is 7 or greater: "COc1ccc(OC)c(S(=O)(=O)N2CCc3c(ccc(C)c3NC(=O)Cc3ccc(C(F)(F)F)c(F)c3)C2)c1"
Found: fulfilled

Lookup: Identify whether the reported pIC50 of the following compound is 7 or greater: "Cc1ccc2c(c1NC(=O)Cc1ccc(C(F)(F)F)c(F)c1)CCN(S(=O)(=O)c1ccccc1F)C2"
Found: fulfilled

Lookup: Identify whether the reported pIC50 of the following compound is 7 or greater: "O=C(Cc1ccc(C(F)(F)F)c(F)c1)Nc1cccc2c1CCN(C(=O)C1CCOCC1)C2"
Found: not fulfilled

Lookup: Identify whether the reported pIC50 of the following compound is 7 or greater: "CCCCS(=O)(=O)N1CCc2c(ccc(Cl)c2NC(=O)Cc2cccc(C(F)(F)F)c2F)C1"
Found: fulfilled

Lookup: Identify whether the reported pIC50 of the following compound is 7 or greater: "COc1ccc2c(c1NC(=O)Cc1ccc(C(F)(F)F)c(F)c1)CCN(C(=O)C1(O)CC1)C2"
Found: not fulfilled

Lookup: Identify whether the reported pIC50 of the following compound is 7 or greater: "N#CN1CCc2c(cccc2NC(=O)Cc2ccc(C(F)(F)F)c(F)c2)C1"
Found: not fulfilled

Lookup: Identify whether the reported pIC50 of the following compound is 7 or greater: "Cc1ccc2c(c1NC(=O)Cc1ccc(C(F)(F)F)c(F)c1)CCN(C(=O)CCC1CCCC1)C2"
Found: not fulfilled

Lookup: Identify whether the reported pIC50 of the following compound is 7 or greater: O=C(Cc1ccc(C(F)(F)F)c(F)c1)Nc1cccc2c1CCN(CC(O)c1ccc(Cl)cc1)C2 (stereo not drawn)
Found: not fulfilled

Lookup: Identify whether the reported pIC50 of the following compound is 7 or greater: "O=C(Cc1ccc(C(F)(F)F)c(F)c1)Nc1c(Cl)ccc2c1CCN(S(=O)(=O)c1ccccc1Cl)C2"
Found: fulfilled

Lookup: Identify whether the reported pIC50 of the following compound is 7 or greater: "O=C(Cc1ccc(C(F)(F)F)c(F)c1)Nc1cccc2c1CCN(C(=O)C1CC1)C2"
Found: not fulfilled

Lookup: Identify whether the reported pIC50 of the following compound is 7 or greater: "COc1ccc2c(c1NC(=O)Cc1ccc(C(F)(F)F)c(F)c1)CCN(C(=O)C1CC1)C2"
Found: not fulfilled

Lookup: Identify whether the reported pIC50 of the following compound is 7 or greater: "CCS(=O)(=O)N1CCc2c(ccc(Cl)c2NC(=O)Cc2ccc(C(F)(F)F)c(F)c2)C1"
Found: fulfilled

Lookup: Identify whether the reported pIC50 of the following compound is 7 or greater: "Cc1ccc2c(c1NC(=O)Cc1ccc(C(F)(F)F)c(F)c1)CCN(C(=O)C(C)(C)C)C2"
Found: fulfilled

###

# Test system: IL-1β release, THP-1 cells
# TEST_DESCRIPTION: IL-1β release assay in differentiated THP-1 cells stimulated with BzATP (Example 9)
# Type: cell-based
# CONDITION_LABEL: Homo sapiens; THP-1 cells, BzATP 250 uM, four parameter logistic fit
Quick reference: IC50 of the listed items.
Provide the reading as a plain figure in nM.

[[record]]
compound = "O=C(Cc1ccc(C(F)(F)F)c(F)c1)Nc1cccc2c1CCN(CC(O)C(O)(c1ccccc1)C(F)(F)F)C2 (stereo not shown)"
target_or_system = "IL-1β release, THP-1 cells"
result_units = "nM"
meas_value = 150


Sure, the documented IC50 for "COc1ccc2c(c1NC(=O)Cc1ccc(C(F)(F)F)c(F)c1)CCN(C(=O)C1(O)CCCCC1)C2" is 280

Sure, the documented IC50 for "CC(=O)N1CCc2c(ccc(C)c2NC(=O)Cc2ccc(C(F)(F)F)c(F)c2)C1" is 175

Sure, the documented IC50 for "CCS(=O)(=O)N1CCc2c(ccc(C)c2NC(=O)Cc2ccc(C(F)(F)F)c(F)c2)C1" is 25.2
